experiment: in vivo; conditions: male, KM, mouse, 20 mg/kg
Readout: Kp

Input: Param item = `C#CCN(Cc1ccc(F)cc1)c1ccc(NC(=O)OC)cc1` ; retrieve measured Kp.
Output: 1.9

* * *

Give measured ΔV1/2 for each item. Keep answers brief.
tested on: KCNQ channels; assay: Whole-cell voltage-clamp electrophysiological recording in CHO cells transfected with KCNQ channels; format: cell-based; settings: shift of V1/2 of current activation curve; negative sign = left-ward shift; CHO cells
Your answer is read as mV, so omit the unit and give the number.

Input: I'd like to know its ΔV1/2. The compound in question is `C#CCN(Cc1ccccc1F)c1ccc(NC(=O)OC)cc1`
Output: −7.6

Input: What about `CC(=O)Nc1ccc(NCc2ccc(F)cc2)cc1` ?
Output: −3.0

Input: For `C#CCCOC(=O)Nc1ccc(N(CC#C)Cc2ccc(F)cc2)cc1N` then?
Output: −36.8

Input: How about this compound: `C=C(/C=C/CO)CN(Cc1ccc(F)cc1)c1ccc(NC(=O)OCC)c(NC(=O)OCC)c1`
Output: −6.0

Input: Next record, please: `C#CCN(Cc1ccc(F)cc1)c1ccc(NC(=O)OCC)cc1`
Output: −7.3

* * *

assay: in vivo; settings: male, KM, mouse, po, 20 mg/kg
Readout: AUC(0-t) (ng·h/mL)
Use ng·h/mL as the unit, but write only the number.

Input: May I ask what AUC(0-t) has been recorded for C#CCN(Cc1ccc(F)cc1)c1ccc(NC(=O)OC)cc1 [Compound K9] ?
Output: 1860

* * *

experiment: in vivo; settings: male, KM, mouse, iv, 20 mg/kg
Readout: clearance (mL/min/kg)
Dear colleague, please return just the value in mL/min/kg, with no unit written.

Input: May I ask what clearance has been recorded for C#CCN(Cc1ccc(F)cc1)c1ccc(NC(=O)OC)cc1 [Compound K9] ?
Output: 46.3

* * *

experiment: in vivo; conditions: male, KM, mouse, po, 20 mg/kg
Readout: half-life

Input: Given the entry `C#CCN(Cc1ccc(F)cc1)c1ccc(NC(=O)OC)cc1` , report its measured half-life.
Output: ~1.2 h

* * *

Assay: in vivo
Conditions: male, KM, mouse, 20 mg/kg
Description: Two hours after administration, animal were fed uniformly. Specific arrangement was as following table. After administration by gastric lavage or intravenous injection, mice were sacrificed by cutting abdominal aorta at time points set as the above with 3 mice for each time point. 0.5 mL of whole blood was collected for each animal, placed into a heparinized test tube and subjected to centrifugation at 3000 rpm to separate plasma, which was then cryopreserved in a −20° C. refrigerator. […]
Readout: bioavailability

Input: Requested field: bioavailability. Item: C#CCN(Cc1ccc(F)cc1)c1ccc(NC(=O)OC)cc1 [Compound K9]
Output: 26%

* * *

test: in vivo; details: male, KM, mouse, iv, 20 mg/kg
Readout: AUC(0-t) (ng·h/mL)
Just the number please, in ng·h/mL, no unit attached.

Input: Using the record for C#CCN(Cc1ccc(F)cc1)c1ccc(NC(=O)OC)cc1 [Compound K9] , report its AUC(0-t).
Output: 7180

* * *

Test: in vivo
Settings: male, KM, mouse, iv, 20 mg/kg
Description: Two hours after administration, animal were fed uniformly. Specific arrangement was as following table. After administration by gastric lavage or intravenous injection, mice were sacrificed by cutting abdominal aorta at time points set as the above with 3 mice for each time point. 0.5 mL of whole blood was collected for each animal, placed into a heparinized test tube and subjected to centrifugation at 3000 rpm to separate plasma, which was then cryopreserved in a −20° C. refrigerator. […]
Readout: Kp
Give the value as a plain number.

Input: Requested read-out: Kp. Entry: `C#CCN(Cc1ccc(F)cc1)c1ccc(NC(=O)OC)cc1`
Output: 1.5

* * *

system: KCNQ channels; assay: Whole-cell voltage-clamp electrophysiological recording in CHO cells transfected with KCNQ channels; format: cell-based; details: shift of V1/2 of current activation curve; negative sign = left-ward shift; CHO cells
Response field class: enum, chosen by comparing ΔV1/2 against range A (below -20 mV), range B (-20 mV to below -10 mV), range C (-10 mV or more)

Input: Class label required: COC(=O)Nc1ccc(NCc2ccc(F)cc2)cc1 [Compound K1]
Output: range C

Input: How about this molecule: C=CCN(Cc1ccc(F)cc1)c1ccc(NC(=O)OCC)cc1 [Compound K7]
Output: range C

Input: Also C#CCN(Cc1cccc(F)c1)c1ccc(NC(=O)OC)cc1 [Compound K12] ?
Output: range A

Input: Can you handle CC#CCN(Cc1ccc(F)cc1)c1ccc(NC(=O)OCC)c(NC(=O)OCC)c1 [Compound K23] next?
Output: range B

Input: Request: C#CCN(c1cccc(NC(=O)OC)c1)C(C)c1ccc(F)cc1 (stereo not drawn) [Compound K16]
Output: range A

Input: Follow-up entry: C#CCN(Cc1ccc(F)c(C(F)(F)F)c1)c1ccccc1NC(=O)OC [Compound K14]
Output: range B

Input: Follow-up entry: C#CCN(Cc1ccc(F)cc1)c1ccc(NC(=O)OCc2ccccc2)cc1 [Compound K4]
Output: range B

Input: Entry to check: C#CCN(Cc1ccc(F)cc1)c1ccc(NC(=O)OCC)c(N)c1 [Compound K21]
Output: range A

Input: Now give it for C#CCN(Cc1ccc(F)c(F)c1)c1ccc(NC(=O)OC)cc1 [Compound K19] too.
Output: range B

* * *

Record form. Attribute: ΔV1/2. Fill in for each entry.
system: KCNQ channels; assay: Whole-cell voltage-clamp electrophysiological recording in CHO cells transfected with KCNQ channels; type: cell-based; conditions: shift of V1/2 of current activation curve; negative sign = left-ward shift; CHO cells
Numbers only; they are read as mV.

Input: Reported ΔV1/2, compound CCC#CCN(Cc1ccc(F)cc1)c1ccc(NC(=O)OCC)c(NC(=O)OCC)c1 [Compound K24] : ____
Output: −1.87

Input: Lookup CCCCCOC(=O)Nc1ccc(N(Cc2ccc(F)cc2)C(=O)OCCCCC)cc1 [Compound K6]
Output: −1.6

Input: Input C#CCN(Cc1ccc(F)cc1)c1ccc(NC(=O)OC)c(NC(=O)OC)c1 [Compound K22]
Output: −27.31

Input: Then this compound: C#CCN(Cc1ccc(F)cc1)c1ccc(NC(=O)OCC(C)C)cc1 [Compound K5]
Output: −14.3

Input: And what about the compound C#CCN(Cc1ccc(F)cc1)c1ccc(F)c(NC(=O)OC)c1 [Compound K10] ?
Output: −18.7

Input: Param item: C#CCN(Cc1ccc(F)c(C(F)(F)F)c1)c1ccc(F)c(NC(=O)OC)c1 [Compound K11]
Output: −15.7

Input: Quick one: C=CCN(Cc1ccc(F)cc1)c1ccc(NC(=O)OCC)c(N)c1 [Compound K20]
Output: −49.7

Input: Then C#CCN(Cc1ccc(F)cc1)c1ccc(NC(=O)OC)c(F)c1 [Compound K15] ?
Output: −22.0

Input: Subsequent entry: C#CCN(Cc1ccc(F)cc1)c1ccc2[nH]c(=O)[nH]c2c1 [Compound K25]
Output: −5.8

Input: Moving on to C#CCN(Cc1ccc(F)cc1)c1ccc(NC(=O)OC)cc1 [Compound K9]
Output: −24.21

* * *

experiment: Distribution of K20.2HCl and K21.2HCl in mice's plasma and brain tissue; format: in vivo, KM mice; conditions: male, KM, mouse, brain, oral, 20 mg/kg gastric lavage, read-out: concentration of prototype drug in brain tissue relative to plasma
Readout: Kp

Input: Give the measured Kp of `C=CCN(Cc1ccc(F)cc1)c1ccc(NC(=O)OCC)c(N)c1` .
Output: 2.3

* * *

assay: Distribution of K20.2HCl and K21.2HCl in mice's plasma and brain tissue; type: in vivo, KM mice; conditions: male, KM, mouse, brain, oral, 5 mg/kg gastric lavage, read-out: concentration of prototype drug in brain tissue relative to plasma
Structures can show the parent of a compound that is named as a salt.
Readout: Kp
Write the value as a bare number.

Input: For the compound shown here, C#CCN(Cc1ccc(F)cc1)c1ccc(NC(=O)OCC)c(N)c1 [Compound K21.2HCl, formate dihydrochloride] , give the reported Kp.
Output: 2.4
